Quick reference: IC50 [nM], inhibition of BT474 cell proliferation (BrdU) of the listed items.
Assayed Target: Human HER2 expressed on tumour cells (human, UniProt P04626 23-1255)
Assay Name: cell-based or functional assay
Reply with just the number (in nM).

Known results for binders:
- Binder: "DARPin #28 (designed binder) MRGSHHHHHHGSDLGVKLLWAAARGQDDEVRILLAAGADVNAKDFQGITPLHIAATNGHLEIVEVLLKAGADVNAKDITGETPLHHAADSGHLEIVEVLLKAGADVNAQDKAGVTPADLAAAWGHEDIAEVLQKLGGGGSGGGGSRSDLGAKLLVAATSGQDDEVRILLAAGADVNAKDRIGFTPLHRAAFVGHLEIVEVLLKAGADVNAQDDFGHTPADLAASLGHEDIAEVLQKLN"
  Reported: 5.15
- Binder: "DARPin #46 (designed binder) MRGSHHHHHHGSDLGKKLLEAARAGQDDEVRILMANGADVNAKDFYGITPLHLAAAYGHLEIVEVLLKHGADVNAHDWNGWTPLHLAAKYGHLEIVEVLLKHGADVNAIDNAGKTPLHLAAAHGHLEIVEVLLKYGADVNAQDKFGKTAFDISIDNGNEDLAEILQKLGGGGSGGGGSRSDLGKKLLEAARAGQDDEVRILMANGADVNATDIHGHTPLHLAAAMGHLEIVEVLLKNGADVNANDWRGFTPLHLAALNGHLEIVEVLLKNGADVNATDTAGNTPLHLAAWFGHLEIVEVLLKNGADVNAQDKFGKTAFDISIDNGNEDLAEILQKLN"
  Reported: 3.34
- Binder: "DARPin #35 (designed binder) MRGSHHHHHHGSDLGIKLLFAAAKGQDDEVRILLAAGADVNAKDFEGYTPLHVAAYDGHLEIVEVLLKAGADVNAKDSQGRTPLHEAAYSGHLEIVEVLLKAGADVNAQDDAGETPADLAAAWGHEDIAEVLQKLGGGGSGGGGSRSDLGIKLLQAANLGQDDEVRILLATGADVNAKDSIGQTPLHWAARRGHLEIVEVLLKAGADVNAKDEYGVTPLHLAASLGHLEIVEVLLKAGADVNAQDESGETPADLAALHGHEDIAEVLQKLN"
  Reported: 4.63
- Binder: "DARPin #63 (designed binder, PEGylated at its C-terminal Cys residue) MRGSHHHHHHGSDLGAKLLSDLGVKLLWAAARGQDDEVRILLAAGADVNAKDFQGITPLHIAAQSGHLEIVEVLLKAGADVNAKDVTGDTPLHLAAQHGHLVIVEVLLKAGADVNAQDERGWTPADLAADWGHEDIAEVLQKLGGGGSGGGGSRSDLGKKLLEAARAGQDDEVRILMANGADVNAKDEYGLTPLYLATAHGHLEIVEVLLKNGADVNAVDAIGFTPLHLAAFIGHLEIAEVLLKHGADVNAQDKFGKTAFDISIGNGNEDLAEILQKAAGGGSGGGSC"
  Reported: 1.77

Consider the record given below.
Problem: Any idea what its IC50 [nM], inhibition of BT474 cell proliferation (BrdU) is? The binder is DARPin #45 (designed binder) MRGSHHHHHHGSDLGKKLLEAARAGQDDEVRILMANGADVNAKDFYGITPLHLAAAYGHLEIVEVLLKHGADVNAHDWNGWTPLHLAAKYGHLEIVEVLLKHGADVNAIDNAGKTPLHLAAAHGHLEIVEVLLKYGADVNAQDKFGKTAFDISIDNGNEDLAEILQKLGGGGSGGGGSRSDLGKKLLEAARAGQDDEVRILMANGADVNAKDEYGLTPLYLATAHGHLEIVEVLLKNGADVNAVDAIGFTPLHLAAFIGHLEIAEVLLKHGADVNAQDKFGKTAFDISIGNGNEDLAEILQKLN
Solution: 1.55
